testedTarget: Bcl-2-related protein A1 (Homo sapiens)
protocolDetails: inhibitors of Bim binding to Bfl-1, dose response, biochemical, multiplexed, bead-based flow cytometry (AID 1320)
statedConditions: inactive by the depositor's call; pH 7.4; 4 °C
testReadout: log10 of EC50 (log10 of the value in µM)
Answers are given as log10 of EC50 in µM.

Recorded log10 of EC50 for Cc1c(/N=C2\C=CC(=O)c3ccccc32)c(=O)n(-c2ccccc2)n1C , please?
1.73

Same for Cc1ccc(-c2cc(-c3ccc(Cl)cc3)c(C#N)c(N)n2)o1
0.42

Continuing:
Recorded log10 of EC50 for Cc1cc(C)nc(SCc2cc(=O)c(OC(=O)c3ccc(Cl)c([N+](=O)[O-])c3)co2)n1 , please?
1.29

Same for CC(C)CN1C(=O)/C(=C/c2ccco2)NC1=S
1.04

Same for COc1cccc2c1C(=O)C=C(C)C2=O
1.45

====

testedTarget: Bcl-2-related protein A1 (Homo sapiens, UniProt Q16548)
Sequence (Q16548 whole entry): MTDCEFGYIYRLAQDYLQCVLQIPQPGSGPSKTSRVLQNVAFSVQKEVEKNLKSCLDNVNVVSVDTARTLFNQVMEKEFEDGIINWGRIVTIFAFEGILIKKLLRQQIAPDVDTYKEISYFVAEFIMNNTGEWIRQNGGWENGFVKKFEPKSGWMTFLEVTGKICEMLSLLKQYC
protocolDetails: inhibitors of Bim binding to Bfl-1, dose response, biochemical, multiplexed, bead-based flow cytometry (AID 1320)
statedConditions: inactive by the depositor's call; pH 7.4; 4 °C
Measured pEC50 accompanies every entry in the list below.
Value format note: pEC50 is -log10 of concentration (mol/L); just state the number.

Recorded pEC50 for Cc1ccc(/C=C/C(=O)c2ccccc(=O)c2O)c(C)c1 , please?
4.29

Same for Nc1ccccc1/N=c1/ssnc1Cl
5.33

Same for CCOc1cccc(CNc2ccc(O)cc2)c1OCc1ccccc1Cl
5.79

Continuing:
Recorded pEC50 for CCN(CC)c1ccc(NC(=O)c2ccccc2Br)cc1S(=O)(=O)Nc1ccccc1OC , please?
5.27

Same for CCC(=O)OCCNc1cc(Sc2nccn2C)c2nonc2c1[N+](=O)[O-]
4.57

Same for Cc1ccc(/C=C2/NC(=O)N(Cc3ccccc3)C2=O)o1
5.56

Same for CCOC(=O)CSC1=NC(=O)/C(=C/c2ccc(Br)cc2)S1
6.26

Same for COc1cc(/N=c2/ssnc2Cl)cc(OC)c1
4.82

Same for CC1N(C)c2cccc3cccc(c23)N1C
5.61

Same for CCOC(=O)c1c(NC(C)=O)sc2c(O)c(Br)cc(Br)c12
4.75

Same for Cc1ccc(-c2ccc(/C=C/C(=O)c3ccccc3)o2)cc1
5.15

Same for S=c1[nH]cc(-c2ccccc2)n1-c1ccccc1Cl
5.65

Same for Cc1ccc(-c2nc3c(c(=O)[nH]c(=O)n3Cc3ccccc3)n2Cc2ccccc2)o1
5.07

Same for CCN(CC)c1ccc(NC(=O)c2ccccc2F)cc1S(=O)(=O)Nc1ccccc1OC
4.91

Same for CCOC(=O)c1sc(N)c(C(=O)Nc2ccccc2OC)c1C
5.25

Same for O=C(Nc1ccc(N2CCOCC2)cc1)Nc1ccc2nc(-c3ccco3)c(-c3ccco3)nc2c1
4.71

Same for O=C(/C=C/c1ccc(-c2ccccc2[N+](=O)[O-])o1)c1ccccc1
5.58

Same for Cc1onc(-c2ccccc2)c1C(=O)Nc1nnc(COc2ccc(Cl)cc2)s1
5.36

Same for O=C(NCCO)c1ccc2nc(-c3ccco3)c(-c3ccco3)nc2c1
5.50

Same for CCOc1cc(S(=O)(=O)Nc2ccccn2)ccc1F
4.35

Same for COc1ccc(-n2c(NC(=O)c3ccco3)c(C#N)c3nc4ccccc4nc32)cc1
4.79

====

testedTarget: Bcl-2-related protein A1 (Homo sapiens)
protocolDetails: inhibitors of Bim binding to Bfl-1, dose response, biochemical, multiplexed, bead-based flow cytometry (AID 1320)
statedConditions: inactive by the depositor's call; pH 7.4; 4 °C
The label yes (1) is reserved for EC50 strictly under 10 µM; no (0) covers values equal to or above it.

Please let me know if COC(=O)CCC(=O)Nc1sc(Cc2ccccc2)c(C)c1C(N)=O shows EC50 below 10 µM.
yes (1)

Continuing:
Please let me know if Nc1ccc(C2=Nc3cccc4cccc(c34)N2)cc1 shows EC50 below 10 µM.
no (0)

Same for CCN1C(=O)/C(=C\C=C2/C=CC=CN2CC)SC1=S
yes (1)

Same for CCN(CC)c1ccc(-c2nn3c(-c4ccccc4OC)nnc3s2)cc1
no (0)

Same for N#Cc1cccc(/N=c2/ssnc2Cl)c1
no (0)

Same for CNc1ccc(Br)cc(C(=O)/C=C/c2cc(OC)ccc2OC)c1=O
no (0)

Same for O=c1c2c(-c3ccccc3)csc2nc2c3ccccc3c(NCCN3CCOCC3)nn12
no (0)

Same for Nc1c(C(=O)NCc2ccco2)sc2nc3c(cc12)C(=O)CCC3
no (0)

Same for CCCCNc1[nH]c(=S)nc2cc(OC)c(OC)cc12
no (0)

Same for Cc1cccc(OCC(=O)NCC(=O)NN=Cc2cc(Br)ccc2OCc2ccccc2)c1
yes (1)

Same for Cc1ccc(-c2ccc(/C=C3\SC(N4CCOCC4)=NC3=O)o2)cc1
no (0)

Same for NC(=O)c1c(N)sc2c1CCCCC2
yes (1)

Same for Cc1ccc(/C=C/C(=O)c2ccccc(=O)c2O)cc1C
no (0)

Same for CCc1cccc(CC)c1-n1c(-c2cccnc2)n[nH]c1=S
yes (1)

Same for Cc1ccc(C(=O)/C=C/c2ccc(-c3ccc(C)cc3)o2)cc1
yes (1)

Same for Cc1ccc(C)n1-c1ccc(N2CCOCC2)cc1
no (0)

Same for COC(=O)CSc1ncnc2c1sc1nc(-c3ccco3)c3c(c12)CC(C)(C)OC3
no (0)

Same for CNc1ccc(Br)cc(C(=O)/C=C/c2cccc(OC)c2)c1=O
no (0)

Same for S=c1[nH]cc(-c2ccccc2)n1-c1ccccc1
yes (1)

Same for Cc1cc2n(c1)CCn1c(C)ccc1-2
no (0)

Same for CN(C)c1ncc(C2=C(Cl)C(=O)C(N3CCCC3)=C(Cl)C2=O)s1
yes (1)

Same for Cc1ccc(/C=C2/NC(=O)N(Cc3ccc(Br)cc3)C2=O)o1
yes (1)

Same for COc1cc(OC)c([N+](=O)[O-])cc1[CH+][N-]NC(=O)c1ccncc1
no (0)

Same for Cc1ccc(O)c(NC2=C(Cl)C(=O)N(Cc3ccccc3)C2=O)c1
no (0)

Same for COc1ccc(OC)c(-n2c(S)nnc2-c2ccc(C)cc2)c1
yes (1)

====

testedTarget: Bcl-2-related protein A1 (Homo sapiens)
protocolDetails: inhibitors of Bim binding to Bfl-1, dose response, biochemical, multiplexed, bead-based flow cytometry (AID 1320)
statedConditions: pH 7.4; 4 °C
Kindly note that classification relies on EC50 with these boundaries: interval 1: < 1000 nM; interval 2: ≥ 1000 nM and < 3000 nM; interval 3: ≥ 3000 nM

Sample answers from the record:
Textbook exercise: identify the category of the compound given here, O=C(c1ccccc1)c1ccc2nc(-c3ccco3)c(-c3ccco3)nc2c1 , according to its measured value.
interval 3

Same for Fc1ccc(C=C2CCCC3C2=NC(=S)NC3c2ccc(F)cc2)cc1 (stereo unspecified)
interval 3

Same for Cc1ccc(-c2nc3c(c(=O)[nH]c(=O)n3Cc3ccccc3)n2C)o1
interval 2

Continuing:
Textbook exercise: identify the category of the compound given here, COC(=O)c1c(C(=O)OC)c2cccc3cc(-c4ccccc4)c4ccc1c4n32 , according to its measured value.
interval 2

Same for Cc1cc(C)c(S(=O)(=O)N=C2C=C(SCC(=O)O)C(=O)c3ccccc32)cc1C
interval 3

Same for Cc1nnc(Sc2cc(NCCO)c([N+](=O)[O-])c3nonc23)s1
interval 1

Same for Nc1c(C(=O)NCC2CCCO2)sc2nc3c(c(-c4ccco4)c12)CC/C3=C\c1ccco1 (stereo unspecified)
interval 1

====

testedTarget: Bcl-2-related protein A1 (Homo sapiens)
protocolDetails: inhibitors of Bim binding to Bfl-1, dose response, biochemical, multiplexed, bead-based flow cytometry (AID 1320)
statedConditions: pH 7.4; 4 °C
Kindly note that classification relies on EC50 with these boundaries: low band: < 3 µM; middle band: ≥ 3 µM and < 10 µM; high band: ≥ 10 µM

Textbook exercise: identify the category of the molecule given here, C#CCn1cc(C=C2C(=O)c3ccccc3C2=O)c2ccccc21 , according to its measured value.
middle band

Same for COc1cc(/N=c2/ssnc2Cl)cc(OC)c1OC
middle band

Same for Cc1cc2nn(-c3cccc4ccccc34)nc2cc1N
low band

Same for CCN(CC)S(=O)(=O)c1cccc(C(=O)NN=Cc2ccc(O)c(O)c2O)c1
middle band

Same for CCC(=O)OCCNc1cc(Sc2nc3ccccc3[nH]2)c2nonc2c1[N+](=O)[O-]
low band

Same for COc1ccc(CCNC(=O)c2ccc3nc(-c4ccco4)c(-c4ccco4)nc3c2)cc1OC
middle band

Same for Clc1ccc2c(N=NCc3ccccc3Br)ccnc2c1
high band

Same for Cc1c(N=C2C(=O)N(c3ccccc3)C(=O)C2Cl)c(=O)n(-c2ccccc2)n1C (centres undefined)
high band

====

Measured log10(EC50) accompanies every entry in the list below.
testedTarget: Bcl-2-related protein A1 (Homo sapiens, UniProt Q16548)
protocolDetails: inhibitors of Bim binding to Bfl-1, dose response, biochemical, multiplexed, bead-based flow cytometry (AID 1320)
statedConditions: pH 7.4; 4 °C
Answers are given as log10 of EC50 in nM.

These solved cases illustrate the format of a correct answer.
Recorded log10(EC50) for CCC(=O)N(CC)C1C(=O)C(=O)c2ccccc2C1=O (stereo not drawn) , please?
1.90

Same for O=C(NCc1ccccn1)c1ccc2nc(-c3ccco3)c(-c3ccco3)nc2c1
3.56

Same for CCN(CC)c1ccc(NC2=C(Cl)C(=O)c3ccccc3C2=O)cc1
2.26

Same for O=c1[nH]c(O)c(Cc2ccc(-c3cc(Cl)ccc3[N+](=O)[O-])o2)c(=O)[nH]1
3.09

Same for Cc1nnc(Sc2cc(NCCCO)c([N+](=O)[O-])c3nonc23)s1 [MLS000674027]
2.11

Same for CCN1/C(=C/C(C)=C/c2sc3ccccc3[n+]2CC)Sc2ccccc21 [SMR000354813]
4.61

Same for C=C[S+]([O-])c1sc(Cl)c(N2CCOCC2)c1[N+](=O)[O-] (stereo not drawn) [SMR000293370]
2.93

Same for N#Cc1cc(-c2ccccc2)nn1-c1ccccc1
3.31

Continuing:
Recorded log10(EC50) for c1ccc(Nc2cccc(Nc3ccccc3)n2)cc1 [N,N'-diphenyl-2,6-pyridinediamine] , please?
3.07

Same for CCC(/C=C1\Sc2ccc(OC)cc2N1CCO)=C\c1sc2ccc(OC)cc2[n+]1CCO
4.31

Same for Cc1ccc(/C=C/C2=Cc3c(sc(NC(=O)CSc4nnc(N)[nH]4)c3C#N)C(C)(C)C2)o1
3.62

Same for CCOC(=O)C1=C(Cc2ccc(C)cc2)C(=O)c2ccccc2C1=O
3.51

Same for CC(=NNC(=O)c1cc(O)c(O)c(O)c1)c1ccc([N+](=O)[O-])cc1 [SMR000312589]
3.83

Same for CCN(C(=O)COC(=O)c1cc(-c2ccc(C)o2)nc2ccccc12)C1CCS(=O)(=O)C1 (stereo not drawn) [MLS001003409]
3.53

Same for CCN(CC)c1ccc(Nc2nc(N3CCOCC3)c3ccccc3n2)cc1
3.95

Same for O=C(NCCCO)Nc1ccc2nc(-c3ccco3)c(-c3ccco3)nc2c1
3.10

Same for COc1ccc2nc(-c3ccco3)c(-c3ccco3)nc2c1 [2,3-di-2-furyl-6-methoxyquinoxaline]
3.69

Same for CN=c1scc(-c2cccs2)n1N=Cc1ccc(O)c(O)c1O [SMR000242177]
3.76

Same for O=[N+]([O-])c1c(NCCO)cc(Sc2nc3ccccc3s2)c2nonc12 [MLS000520993]
2.08

Same for CC(=O)OCCCNc1cc(Sc2nc3ccccc3s2)c2nonc2c1[N+](=O)[O-] [MLS000521052]
1.90

Same for O=c1[nH]c2ccc(N=Cc3c(O)ccc4cc(Br)ccc34)cc2[nH]1 [SMR000171789]
3.65

Same for Nc1c(C(=O)NC2CC2)sc2nc3c(c(-c4ccco4)c12)CC/C3=C/c1ccco1 [SMR000259554]
3.04

Same for CN(CCO)c1cc(Sc2nc3ccccc3s2)c2nonc2c1[N+](=O)[O-] [MLS000520995]
3.17

Same for CCOC(=O)CSC1=NC(=O)/C(=C/c2ccc(OC)cc2)S1
3.05

Same for O=C(Nc1cccc(C(F)(F)F)c1)c1ccc2nc(-c3ccco3)c(-c3ccco3)nc2c1 [SMR000142217]
3.47

Same for O=C1C(Cl)=C(N2CCN(c3ccccc3[N+](=O)[O-])CC2)C(=O)c2ccccc21
2.56

Same for CN1CCc2cccc3c2[C@@H]1Cc1ccc(O)c(O)c1-3
4.18
